assay: Metabolic stability in rat liver microsomes assessed as parent compound remaining measured after 10 mins in presence of NADPH; format: ADME, Microsome; conditions: liver microsomes, read-out: Stabilty
Grouping rule (remaining at 10 min): lower segment = under 40%, middle segment = from 40% up to 70%, upper segment = 70% and over

[
  {
    "COMPOUND": "CCCCc1nc(=O)c(C(=O)N2CC[C@H](c3ccccc3)C2)c(O)n1-c1c(OC)cccc1OC",
    "ANSWER_LABEL": "lower segment"
  },
  {
    "COMPOUND": "CCCCc1nc(=O)c(C(=O)N2CCC(c3cccnc3)C2)c(O)n1-c1c(OC)cccc1OC (stereo in doubt; 12a)",
    "ANSWER_LABEL": "middle segment"
  },
  {
    "COMPOUND": "CCCCc1nc(=O)c(C(=O)N2CC[C@@H](c3ccccc3)C2)c(O)n1-c1c(OC)cccc1OC",
    "ANSWER_LABEL": "lower segment"
  },
  {
    "COMPOUND": "CCCCc1nc(=O)c(C(=O)N2CC[C@H](c3ccc(Cl)cn3)C2)c(O)n1-c1c(OC)cccc1OC",
    "ANSWER_LABEL": "lower segment"
  },
  {
    "COMPOUND": "CCCCc1nc(=O)c(C(=O)N2CC[C@@H](c3ccc(Cl)cn3)C2)c(O)n1-c1c(OC)cccc1OC",
    "ANSWER_LABEL": "middle segment"
  },
  {
    "COMPOUND": "CCCCc1nc(=O)c(C(=O)N2CCC(c3ccncc3)C2)c(O)n1-c1c(OC)cccc1OC (stereo in doubt; 13a)",
    "ANSWER_LABEL": "upper segment"
  },
  {
    "COMPOUND": "CCCCc1nc(=O)c(C(=O)N2CCC(c3ccc(Cl)cc3)C2)c(O)n1-c1c(OC)cccc1OC (stereo in doubt; 10a)",
    "ANSWER_LABEL": "lower segment"
  },
  {
    "COMPOUND": "CCCCc1[nH]c(=O)c(C(=O)N2CC[C@H](c3ccccc3)C2)c(O)c1-c1c(OC)cccc1OC",
    "ANSWER_LABEL": "upper segment"
  }
]

###

assay: Permeability of the compound at pH 5.5 by PAMPA assay; type: ADME; details: read-out: permeability
REPORTED_ENDPOINT: Papp (×10⁻⁶ cm/s)

[
  {
    "COMPOUND": "CCOCc1nc(=O)c(C(=O)N2CC[C@H](c3ccccc3)C2)c(O)n1-c1c(OC)cccc1OC",
    "REPORTED_ENDPOINT": "Papp",
    "UNIT_OF_MEASURE": "×10⁻⁶ cm/s",
    "MEASURED_NUMBER": 6.4
  },
  {
    "COMPOUND": "CCCCc1nc(=O)c(C(=O)N2CCC(c3ccc(Cl)cc3)C2)c(O)n1-c1c(OC)cccc1OC (stereo in doubt; 10a)",
    "REPORTED_ENDPOINT": "Papp",
    "UNIT_OF_MEASURE": "×10⁻⁶ cm/s",
    "MEASURED_NUMBER": 30
  },
  {
    "COMPOUND": "CCCCc1[nH]c(=O)c(C(=O)N2CC[C@H](c3ccccc3)C2)c(O)c1-c1c(OC)cccc1OC",
    "REPORTED_ENDPOINT": "Papp",
    "UNIT_OF_MEASURE": "×10⁻⁶ cm/s",
    "MEASURED_NUMBER": 84
  },
  {
    "COMPOUND": "CCCCc1nc(=O)c(C(=O)N2CC[C@H](c3ccccc3)C2)c(O)n1-c1c(OC)cccc1OC",
    "REPORTED_ENDPOINT": "Papp",
    "UNIT_OF_MEASURE": "×10⁻⁶ cm/s",
    "MEASURED_NUMBER": 52.3
  }
]
